target: UniProt P58154; assay: biochemical; assay type: binding

compound	k−1 Lymnaea
CCN1C[C@]2(COC(=O)c3ccccc3N3C(=O)C[C@H](C)C3=O)CC[C@H](OC)[C@@]34[C@@H]5C[C@H]6[C@H](OC)[C@@H]5[C@](O)(C[C@@H]6OC)[C@@](O)([C@@H](OC)[C@H]23)[C@@H]14	0.005 s⁻¹
CC[N+](CC)(CC)CCOc1cccc(OCC[N+](CC)(CC)CC)c1OCC[N+](CC)(CC)CC	36 s⁻¹
Clc1ccc(C2CC3CCC2N3)cn1 (stereo not shown) [Epibatidine]	0.027 s⁻¹
CN1CCCC1c1cccnc1 (single isomer, unassigned; (-)) [(−)-Nicotine]	5.7 s⁻¹

====

target: Aplysia AChBP (Aplysia californica, UniProt Q8WSF8); test: biochemical; assay type: binding
Sequence (Q8WSF8 18-236): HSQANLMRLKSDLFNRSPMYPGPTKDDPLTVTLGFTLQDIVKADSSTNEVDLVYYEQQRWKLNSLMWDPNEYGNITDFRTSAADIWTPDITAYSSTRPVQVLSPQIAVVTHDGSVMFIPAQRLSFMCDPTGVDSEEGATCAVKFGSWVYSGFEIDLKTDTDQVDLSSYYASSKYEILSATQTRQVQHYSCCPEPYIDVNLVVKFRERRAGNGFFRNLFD
As shown below, each of these molecules has a reported Kd Ratio L/A value.
experimental-endpoint: Kd Ratio L/A

molecule	experimental-endpoint	measurement
Clc1ccc(C2CC3CCC2N3)cn1 (stereo not shown) [Epibatidine]	Kd Ratio L/A	0.011
CC[N+](CC)(CC)CCOc1cccc(OCC[N+](CC)(CC)CC)c1OCC[N+](CC)(CC)CC	Kd Ratio L/A	1.2
C[N+](C)(C)CCOC(N)=O	Kd Ratio L/A	0.023
CCN1C[C@]2(COC(=O)c3ccccc3N3C(=O)C[C@H](C)C3=O)CC[C@H](OC)[C@@]34[C@@H]5C[C@H]6[C@H](OC)[C@@H]5[C@](O)(C[C@@H]6OC)[C@@](O)([C@@H](OC)[C@H]23)[C@@H]14	Kd Ratio L/A	0.14

====

molecular target: UniProt:P58154; assay: biochemical; assay type: binding

compound	assay-system	k1 Lymnaea
CN1CCCC1c1cccnc1 (single isomer, unassigned; (-)) [(−)-Nicotine]	UniProt:P58154	1.5e+08 M⁻¹ s⁻¹
Clc1ccc(C2CC3CCC2N3)cn1 (stereo not drawn) [Epibatidine]	UniProt:P58154	1.7e+08 M⁻¹ s⁻¹
CCN1C[C@]2(COC(=O)c3ccccc3N3C(=O)C[C@H](C)C3=O)CC[C@H](OC)[C@@]34[C@@H]5C[C@H]6[C@H](OC)[C@@H]5[C@](O)(C[C@@H]6OC)[C@@](O)([C@@H](OC)[C@H]23)[C@@H]14 [Methyllycaconitine]	UniProt:P58154	1.3e+07 M⁻¹ s⁻¹

====

target: Lymnaea AChBP (Lymnaea stagnalis, UniProt P58154); assay: biochemical; type: binding
Sequence (P58154 20-229 limits assumed): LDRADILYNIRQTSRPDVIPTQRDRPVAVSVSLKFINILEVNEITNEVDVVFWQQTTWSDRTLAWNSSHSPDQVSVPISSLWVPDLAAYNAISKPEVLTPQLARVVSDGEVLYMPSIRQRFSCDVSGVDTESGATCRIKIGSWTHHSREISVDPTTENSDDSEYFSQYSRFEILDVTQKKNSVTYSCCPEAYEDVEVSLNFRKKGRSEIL
experimental-endpoint: k1

> print(dat)
                                   molecule                 measurement
1  Clc1ccc(C2CC3CCC2N3)cn1 (stereo not drawn) [Epibatidine]  1.7 ± 0.26 ×10^8 M^−1 s^−1
2  CC[N+](CC)(CC)CCOc1cccc(OCC[N+](CC)(CC)CC)c1OCC[N+](CC)(CC)CC  2.5 ± 0.14 ×10^8 M^−1 s^−1
3          C[N+](C)(C)CCCCCCCCCC[N+](C)(C)C  3.2 ± 0.17 ×10^8 M^−1 s^−1
